// pKi collected for UniProt Q13639
Sequence (Q13639 whole entry): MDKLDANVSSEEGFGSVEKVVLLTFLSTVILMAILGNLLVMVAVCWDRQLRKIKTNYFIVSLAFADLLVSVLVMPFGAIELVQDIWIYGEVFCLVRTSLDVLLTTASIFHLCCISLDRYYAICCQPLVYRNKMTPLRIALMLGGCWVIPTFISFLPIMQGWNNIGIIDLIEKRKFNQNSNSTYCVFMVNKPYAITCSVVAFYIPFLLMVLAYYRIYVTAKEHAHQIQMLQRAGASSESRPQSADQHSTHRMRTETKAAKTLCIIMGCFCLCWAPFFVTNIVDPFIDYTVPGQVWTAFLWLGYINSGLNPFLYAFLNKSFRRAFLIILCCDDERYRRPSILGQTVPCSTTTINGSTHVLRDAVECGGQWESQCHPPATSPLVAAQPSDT
Kindly note that pKi refers to -log10 of the concentration in mol/L and answer with the value alone.

Cn1cc(C(=O)OCC2CCN(CCNS(C)(=O)=O)CC2)c2ccccc21 :: 9.60

Consider the record given below.
## Input Answer with reported pKi of COc1ccc2[nH]cc(CCN)c2c1
## Output 6.00

###

These compounds were tested on 5-hydroxytryptamine receptor 4 (Cavia porcellus, UniProt O70528); pKi is the recorded read-out.
Sequence (O70528 whole entry): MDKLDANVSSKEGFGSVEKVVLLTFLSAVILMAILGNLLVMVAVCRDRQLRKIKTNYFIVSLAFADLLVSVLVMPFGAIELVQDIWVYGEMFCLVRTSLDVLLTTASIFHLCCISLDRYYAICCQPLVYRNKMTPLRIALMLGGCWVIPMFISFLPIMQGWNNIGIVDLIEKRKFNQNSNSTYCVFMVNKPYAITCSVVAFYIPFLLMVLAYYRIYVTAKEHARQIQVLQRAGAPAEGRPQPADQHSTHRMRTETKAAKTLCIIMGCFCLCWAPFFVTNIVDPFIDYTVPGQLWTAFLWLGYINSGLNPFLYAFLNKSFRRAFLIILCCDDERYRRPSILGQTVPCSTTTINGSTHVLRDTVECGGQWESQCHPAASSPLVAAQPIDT
The value called pKi is obtained by taking minus log10 of the concentration in mol/L.

Some compounds with recorded pKi:
CN1C2CCC1CC(OC(=O)c1c[nH]c3ccccc13)C2 (centres undefined) :: 6.70
Cn1cc(C(=O)OCC2CCN(CCNS(C)(=O)=O)CC2)c2ccccc21 [GR 113808] :: 9.41
COc1ccc2[nH]cc(CCN)c2c1 [tryptamine, 5-Methoxy] :: 6.60

## Input Supply pKi value. Item: COc1[nH]c2ccc(F)cc2c1C(=O)OCC1CCN(CCNS(C)(=O)=O)CC1 [GR-125487]
## Output 9.72
